Assignment: determine reported protein stability index for the given variants.
B1: VAMP4 (parent)
chain: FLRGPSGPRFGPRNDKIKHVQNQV

# Variants of: B1
# Protocol text: protein stability index of a GFP-peptide fusion (GPS, HEK-293T) (PSI 1-6); higher = more stable;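 note: lentivirally expressed fusions sorted by FACS into six bins by GFP to DsRed ratio, PSI derived from sequencing read proportions per bin multiplied by bin number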
# Cond: c terminus: a fixed tail appended
Answers are plain numbers.

Example entries begin here.
# Mutations, Recorded number
measured = [
    ("V24P", 2.94),
    ("L2I", 1.97),
    ("R3M", 2.04),
    ("N14H", 2.73),
]

I would be grateful if you could provide protein stability index for each of the following entries.
1. Q21Y
2. P12W
3. N22C
4. G11E
5. F1G
6. F1C

2.11
1.88
2.56
3.51
3.65
2.85

I would be grateful if you could provide protein stability index for each of the following entries.
1. R13Q
2. Q21P
3. G4H
4. H19V

3.6
2.91
2.85
2.95

I would be grateful if you could provide protein stability index for each of the following entries.
1. R3I
2. I17T
3. F1Q
4. V20Y
5. G7P
6. Q23I
7. N22P
8. D15K

1: 2.24; 2: 3.16; 3: 3.68; 4: 2.46; 5: 3.24; 6: 2.14; 7: 2.53; 8: 2.23

I would be grateful if you could provide protein stability index for each of the following entries.
1. K16R
2. H19R
3. P5M
4. N22R
5. R3L
6. K18I

2.75
2.03
2.37
2.25
2.42
2.31

Source listed as the supplement of paper PMC10567573.
